- EXPERIMENTAL_SYSTEM: glycine receptor α1 subunit (GlyR α1 Q177K, shaky) (Mus musculus, UniProt Q64018, Q205K)
- Construct: native GlyRs in hypoglossal motoneurons of brain stem slices (Glra1sh/sh, P18-24); with GlyR β subunit (Glrb)
- PROTOCOL: whole-cell patch-clamp dose-response of bath-applied glycine in brain stem slices
OBSERVED_PROPERTY: EC50 (µM)
I only need the number, in µM, no unit after it.

What EC50 value was documented for this compound, NCC(=O)O [glycine] ?
384

Reference source for all entries: paper PMC5992992
